Recorded measurements of pIC50, one per entry
TARGET OF ASSAY: HDAC6 (Homo sapiens, UniProt Q9UBN7)
Sequence (Q9UBN7 whole entry): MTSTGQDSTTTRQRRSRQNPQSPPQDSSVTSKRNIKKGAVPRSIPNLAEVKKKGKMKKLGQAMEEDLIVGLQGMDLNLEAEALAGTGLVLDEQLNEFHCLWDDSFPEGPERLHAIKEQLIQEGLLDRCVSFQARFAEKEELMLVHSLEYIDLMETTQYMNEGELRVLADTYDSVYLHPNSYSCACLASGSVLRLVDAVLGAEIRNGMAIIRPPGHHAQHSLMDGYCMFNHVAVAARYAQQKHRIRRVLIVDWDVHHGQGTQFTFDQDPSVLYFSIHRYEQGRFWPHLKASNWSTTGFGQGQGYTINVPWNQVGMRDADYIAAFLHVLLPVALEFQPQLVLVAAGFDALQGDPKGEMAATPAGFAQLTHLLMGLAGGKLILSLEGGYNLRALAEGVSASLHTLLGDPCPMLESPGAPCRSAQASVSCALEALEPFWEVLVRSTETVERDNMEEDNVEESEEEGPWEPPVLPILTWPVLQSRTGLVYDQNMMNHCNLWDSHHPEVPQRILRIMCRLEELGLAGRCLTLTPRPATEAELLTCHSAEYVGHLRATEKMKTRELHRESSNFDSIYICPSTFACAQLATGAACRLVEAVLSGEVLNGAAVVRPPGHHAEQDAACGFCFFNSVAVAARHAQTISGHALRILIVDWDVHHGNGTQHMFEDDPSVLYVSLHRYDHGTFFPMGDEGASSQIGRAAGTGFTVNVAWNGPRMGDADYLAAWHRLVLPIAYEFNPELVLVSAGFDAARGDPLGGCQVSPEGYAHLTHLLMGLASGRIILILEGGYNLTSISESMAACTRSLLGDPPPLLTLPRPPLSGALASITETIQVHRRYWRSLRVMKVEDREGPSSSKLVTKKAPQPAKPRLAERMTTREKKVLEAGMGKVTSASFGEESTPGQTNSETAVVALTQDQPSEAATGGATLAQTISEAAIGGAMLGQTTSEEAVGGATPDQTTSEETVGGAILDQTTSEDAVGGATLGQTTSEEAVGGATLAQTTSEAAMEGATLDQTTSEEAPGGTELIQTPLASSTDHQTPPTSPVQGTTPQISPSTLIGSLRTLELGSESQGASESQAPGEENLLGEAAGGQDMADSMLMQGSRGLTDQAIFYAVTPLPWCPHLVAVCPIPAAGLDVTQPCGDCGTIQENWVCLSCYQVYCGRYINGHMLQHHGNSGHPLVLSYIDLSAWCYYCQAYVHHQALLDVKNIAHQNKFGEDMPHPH
EXPERIMENT SUMMARY: In-vitro human HDAC6 fluorogenic inhibition assay (ZMAL substrate)
Format: biochemical
SETTINGS: fluorogenic assay; n≥2, each in duplicate wells; read-out: Target Inhibition IC50 HDAC6
Worth noting: pIC50 values are minus log10 of concentrations stated in mol/L.

Would you please look over these solved cases?
{"COMPOUND": "O=C(/C=C/c1ccc(CNC(=O)CCCc2ccccc2)cc1)NO", "TARGET OF ASSAY": "HDAC6 (Homo sapiens, UniProt Q9UBN7)", "OUTCOME MEASURE": "pIC50", "VAL": 7.18}
{"COMPOUND": "Cn1nnc2c(C(=O)NCc3ccc(/C=C/C(=O)NO)cc3)ncn2c1=O", "TARGET OF ASSAY": "HDAC6 (Homo sapiens, UniProt Q9UBN7)", "OUTCOME MEASURE": "pIC50", "VAL": 7.14}

Given item "O=C(CCCCCNC(=O)c1ncn2c(=O)n(CCCl)nnc12)NO" , the value recorded as its pIC50 is 7.03

Given item O=C(CCCCCCNC(=O)c1ccc(NC(=O)COCCOCCNC(=O)COc2cccc3c2C(=O)N(C2CCC(=O)NC2=O)C3=O)cc1)NO (stereo not shown) , the value recorded as its pIC50 is 7.57

###

Recorded measurements of IC50, one per entry
System: human primary glioblastoma cell line U87
EXPERIMENT SUMMARY: MTT cell viability assay, U87
Format: cell-based
SETTINGS: 72 h, read-out: Antiproliferative Effect IC50 U87

{"STRUCTURE STRING": "O=C(/C=C/c1ccc(CNC(=O)CCCc2ccc(N(CCCl)CCCl)cc2)cc1)NO", "TARGET OF ASSAY": "human primary glioblastoma cell line U87", "IC50": "19.8 µM"}

Given item "O=C(CCCNC(=O)CCCc1ccc(N(CCCl)CCCl)cc1)NO" , the value recorded as its IC50 is 46.1 µM

Given item "O=C(CCCCCNC(=O)CCCc1ccc(N(CCCl)CCCl)cc1)NO" , the value recorded as its IC50 is 43.9 µM

###

TARGET OF ASSAY: human recombinant HDAC2 (Homo sapiens)
Sequence (Q92769 whole entry): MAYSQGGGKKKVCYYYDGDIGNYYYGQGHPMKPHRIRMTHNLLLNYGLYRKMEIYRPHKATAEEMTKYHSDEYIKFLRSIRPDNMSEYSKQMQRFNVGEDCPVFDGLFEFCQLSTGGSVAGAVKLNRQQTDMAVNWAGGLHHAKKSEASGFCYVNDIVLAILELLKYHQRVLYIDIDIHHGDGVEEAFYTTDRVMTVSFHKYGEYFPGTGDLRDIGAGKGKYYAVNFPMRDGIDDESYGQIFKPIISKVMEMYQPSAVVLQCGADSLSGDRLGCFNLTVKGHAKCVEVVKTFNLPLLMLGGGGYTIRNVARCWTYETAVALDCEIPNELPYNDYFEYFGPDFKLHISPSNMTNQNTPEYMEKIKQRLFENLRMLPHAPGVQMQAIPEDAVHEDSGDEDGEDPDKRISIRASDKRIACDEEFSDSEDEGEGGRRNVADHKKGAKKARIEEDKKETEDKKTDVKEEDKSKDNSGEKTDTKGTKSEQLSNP
EXPERIMENT SUMMARY: In-vitro human HDAC2 fluorogenic inhibition assay (ZMAL substrate)
Assay type: biochemical
OUTCOME MEASURE: pIC50
Worth noting: pIC50 values are minus log10 of concentrations stated in mol/L.

Given item "O=C(/C=C/c1ccc(CNC(=O)CCCc2ccc(N(CCCl)CCCl)cc2)cc1)NO" , the value recorded as its pIC50 is 6.36

###

System: human tongue squamous cell carcinoma cell line Cal27
EXPERIMENT SUMMARY: MTT cell viability assay, Cal27
Type: cell-based
SETTINGS: Homo sapiens, CAL-27; MTT assay, 72 h; n≥3, each in triplicate wells; read-out: Antiproliferative Effect IC50 Cal27
OUTCOME MEASURE: pIC50
Worth noting: pIC50 values are minus log10 of concentrations stated in mol/L.

Would you please look over these solved cases?
{"COMPOUND": "NC(=O)c1ncn2c(=O)n(CCCl)nnc12 [MTZ, mitozolomide, reference compound]", "pIC50": 5.45}
{"COMPOUND": "Cn1nnc2c(C(=O)NCCCC(=O)NO)ncn2c1=O", "pIC50": 4.01}
{"COMPOUND": "O=C(/C=C/c1ccc(CNC(=O)CCCc2ccccc2)cc1)NO", "pIC50": 5.18}
{"COMPOUND": "O=C(NO)c1ccc(CNC(=O)c2ncn3c(=O)n(CCCl)nnc23)cc1", "pIC50": 4.77}
{"COMPOUND": "O=C(CCCCCCNC(=O)c1ncn2c(=O)n(CCCl)nnc12)NO", "pIC50": 5.00}
{"COMPOUND": "Cn1nnc2c(C(=O)NCc3ccc(/C=C/C(=O)NO)cc3)ncn2c1=O", "pIC50": 4.81}
{"COMPOUND": "O=C(CCCNC(=O)c1ncn2c(=O)n(CCCl)nnc12)NO", "pIC50": 4.06}
{"COMPOUND": "Cn1nnc2c(C(=O)NCCCCCCC(=O)NO)ncn2c1=O", "pIC50": 4.99}
{"COMPOUND": "O=C(CCCCCNC(=O)c1ncn2c(=O)n(CCCl)nnc12)NO", "pIC50": 4.54}

Given item Cn1nnc2c(C(N)=O)ncn2c1=O [TMZ, temozolomide, reference compound] , the value recorded as its pIC50 is 4.25

###

System: human tongue squamous cell carcinoma cell line Cal27
EXPERIMENT SUMMARY: MTT cell viability assay, Cal27
Type: cell-based
SETTINGS: Homo sapiens, CAL-27, 72 h, read-out: Antiproliferative Effect IC50 Cal27
OUTCOME MEASURE: pIC50
Worth noting: pIC50 values are minus log10 of concentrations stated in mol/L.

Would you please look over these solved cases?
{"COMPOUND": "O=C(CCCNC(=O)CCCc1ccc(N(CCCl)CCCl)cc1)NO", "OUTCOME MEASURE": "pIC50", "VAL": 5.06}
{"COMPOUND": "O=C(CCCCCNC(=O)CCCc1ccc(N(CCCl)CCCl)cc1)NO", "OUTCOME MEASURE": "pIC50", "VAL": 5.12}

Given item "O=C(CCCCCCNC(=O)CCCc1ccc(N(CCCl)CCCl)cc1)NO" , the value recorded as its pIC50 is 5.21

Given item O=C(O)CCCc1ccc(N(CCCl)CCCl)cc1 [CAB, chlorambucil, reference compound] , the value recorded as its pIC50 is 4.63

Given item "O=C(CCCc1ccc(N(CCCl)CCCl)cc1)NCc1ccc(C(=O)NO)cc1" , the value recorded as its pIC50 is 5.16

Given item "O=C(/C=C/c1ccc(CNC(=O)CCCc2ccc(N(CCCl)CCCl)cc2)cc1)NO" , the value recorded as its pIC50 is 5.57

Given item Cn1c(CCCCCCC(=O)NO)nc2cc(N(CCCl)CCCl)ccc21 [tinostamustine, reference compound] , the value recorded as its pIC50 is 5.53

###

TARGET OF ASSAY: HDAC1 (Homo sapiens)
Sequence (Q13547 whole entry): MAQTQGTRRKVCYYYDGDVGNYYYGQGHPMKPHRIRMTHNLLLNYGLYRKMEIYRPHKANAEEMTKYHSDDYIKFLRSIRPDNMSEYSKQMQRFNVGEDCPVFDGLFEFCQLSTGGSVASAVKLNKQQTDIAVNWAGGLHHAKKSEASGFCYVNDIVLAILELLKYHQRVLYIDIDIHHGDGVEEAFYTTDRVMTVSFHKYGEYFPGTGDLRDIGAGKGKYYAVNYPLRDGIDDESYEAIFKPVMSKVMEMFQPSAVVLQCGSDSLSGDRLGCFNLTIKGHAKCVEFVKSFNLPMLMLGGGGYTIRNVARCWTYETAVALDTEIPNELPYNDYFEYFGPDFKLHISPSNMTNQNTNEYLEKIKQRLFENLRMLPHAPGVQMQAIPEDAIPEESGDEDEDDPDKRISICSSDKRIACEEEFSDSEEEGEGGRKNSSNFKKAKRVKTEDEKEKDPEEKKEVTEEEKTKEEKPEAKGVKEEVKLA
EXPERIMENT SUMMARY: In-vitro human HDAC1 fluorogenic inhibition assay (ZMAL substrate)
Type: biochemical
pIC50: −log10 of the molar value.
The threshold is inclusive: pIC50 of exactly 6 counts as yes (1); values below receive no (0).

Field: example entries. Status: answers known.
{"COMPOUND": "O=C(/C=C/c1ccc(CNC(=O)CCCc2ccc(N(CCCl)CCCl)cc2)cc1)NO", "TARGET OF ASSAY": "HDAC1 (Homo sapiens)", "CLASSIFICATION": "yes (1)"}
{"COMPOUND": "O=C(CCCCCNC(=O)CCCc1ccc(N(CCCl)CCCl)cc1)NO", "TARGET OF ASSAY": "HDAC1 (Homo sapiens)", "CLASSIFICATION": "yes (1)"}
{"COMPOUND": "Cn1c(CCCCCCC(=O)NO)nc2cc(N(CCCl)CCCl)ccc21 [tinostamustine, reference compound]", "TARGET OF ASSAY": "HDAC1 (Homo sapiens)", "CLASSIFICATION": "yes (1)"}
{"COMPOUND": "O=C(CCCc1ccc(N(CCCl)CCCl)cc1)NCc1ccc(C(=O)NO)cc1", "TARGET OF ASSAY": "HDAC1 (Homo sapiens)", "CLASSIFICATION": "yes (1)"}
{"COMPOUND": "O=C(CCCCCCNC(=O)CCCc1ccc(N(CCCl)CCCl)cc1)NO", "TARGET OF ASSAY": "HDAC1 (Homo sapiens)", "CLASSIFICATION": "yes (1)"}

Prompt: Kindly determine if pIC50 recorded for "O=C(CCCNC(=O)CCCc1ccc(N(CCCl)CCCl)cc1)NO" is above or exactly 6.
Response: no (0)

###

Recorded measurements of IC50, one per entry
Tested on: human primary glioblastoma cell line U87
EXPERIMENT SUMMARY: MTT cell viability assay, U87
Format: cell-based
SETTINGS: 72 h, read-out: Antiproliferative Effect IC50 U87
Number only, in µM; omit the unit.

Would you please look over these solved cases?
{"COMPOUND": "O=C(O)CCCc1ccc(N(CCCl)CCCl)cc1 [CAB, chlorambucil, reference compound]", "READING UNIT": "µM", "VAL": 86.3}
{"COMPOUND": "O=C(CCCCCCNC(=O)CCCc1ccc(N(CCCl)CCCl)cc1)NO [Compound 3 k]", "READING UNIT": "µM", "VAL": 39.2}
{"COMPOUND": "O=C(CCCc1ccc(N(CCCl)CCCl)cc1)NCc1ccc(C(=O)NO)cc1 [Compound 3 c]", "READING UNIT": "µM", "VAL": 23.9}

In the following, a different compound is considered.
Entry Cn1c(CCCCCCC(=O)NO)nc2cc(N(CCCl)CCCl)ccc21 [tinostamustine, reference compound] : IC50 on human primary glioblastoma cell line U87 = 8.32
